biological target: UniProt P10635
Sequence (P10635 whole entry): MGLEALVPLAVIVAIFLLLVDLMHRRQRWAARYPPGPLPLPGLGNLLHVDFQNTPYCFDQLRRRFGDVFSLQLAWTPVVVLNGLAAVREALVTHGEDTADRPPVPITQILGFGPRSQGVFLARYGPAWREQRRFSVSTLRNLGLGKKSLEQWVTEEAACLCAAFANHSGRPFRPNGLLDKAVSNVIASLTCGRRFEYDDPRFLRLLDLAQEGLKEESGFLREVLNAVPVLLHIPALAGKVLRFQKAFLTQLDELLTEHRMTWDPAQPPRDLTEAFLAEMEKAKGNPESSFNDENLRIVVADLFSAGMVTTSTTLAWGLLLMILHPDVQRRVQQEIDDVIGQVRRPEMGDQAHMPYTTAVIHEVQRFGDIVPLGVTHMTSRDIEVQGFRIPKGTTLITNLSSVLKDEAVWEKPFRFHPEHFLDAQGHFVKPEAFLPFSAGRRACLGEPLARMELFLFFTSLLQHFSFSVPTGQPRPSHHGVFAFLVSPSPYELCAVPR
OBSERVATION_TYPE: IC50

The cases that follow already have their IC50 on record.
{"STRUCTURE_NOTATION": "c1ccc(Cn2ccnc2)cc1", "IC50": "2000 nM"}
{"STRUCTURE_NOTATION": "CCCCCCNC(=O)n1cc(F)c(=O)[nH]c1=O", "IC50": "5000 nM"}
{"STRUCTURE_NOTATION": "Cc1cc(C(C)(C)C)c(O)c(C)c1CC1=NCCN1", "IC50": "200 nM"}
{"STRUCTURE_NOTATION": "CN(Cc1cc(Br)cc(Br)c1N)C1CCCCC1", "IC50": "196 nM"}

Would you kindly look at the next entry?
In: Field request: IC50 | item: "CC[C@H](C)[C@@H](CO[C@@H](Cc1ccccc1)C(=O)N[C@@H](CCS(C)(=O)=O)C(=O)OC(C)C)NC[C@@H](N)CS"
Out: 700 nM

====

molecular target: Adenosine receptor A1 (Homo sapiens, UniProt P30542); type: cell membranes, CHO, Membrane; conditions: cho; note: in other assays of this panel Not Active means under 50% inhibition at 10 µM;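 note: radioligand binding assay at the adenosine A1 receptor, with DPCPX serving as the labelled ligand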
Sequence (P30542 whole entry): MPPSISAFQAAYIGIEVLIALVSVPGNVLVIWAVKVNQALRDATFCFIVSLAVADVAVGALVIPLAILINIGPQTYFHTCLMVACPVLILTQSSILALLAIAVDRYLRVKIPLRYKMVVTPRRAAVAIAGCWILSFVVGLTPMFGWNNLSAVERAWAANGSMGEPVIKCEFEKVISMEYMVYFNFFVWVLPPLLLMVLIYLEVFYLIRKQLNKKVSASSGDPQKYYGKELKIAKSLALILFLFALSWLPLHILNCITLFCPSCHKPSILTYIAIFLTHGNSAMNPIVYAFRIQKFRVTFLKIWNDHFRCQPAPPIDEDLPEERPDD
OBSERVATION_TYPE: IC50

{"MOLECULE": "Nc1ccc(Cc2ccc(N)cc2)cc1", "OBSERVATION_TYPE": "IC50", "RESULT": "Not Active"}
{"MOLECULE": "COC(=O)Nc1nc2ccc(C(=O)c3ccccc3)cc2[nH]1", "OBSERVATION_TYPE": "IC50", "RESULT": "Not Active"}
{"MOLECULE": "CC[C@H]1OC(=O)[C@H](C)[C@@H](O[C@H]2C[C@@](C)(OC)[C@@H](O)[C@H](C)O2)[C@H](C)[C@@H](O[C@@H]2O[C@H](C)C[C@H](N(C)C)[C@H]2O)[C@](C)(O)C[C@@H](C)C(=O)[C@H](C)[C@@H](O)[C@]1(C)O", "OBSERVATION_TYPE": "IC50", "RESULT": "Not Active"}
{"MOLECULE": "CC(N)C12CC3CC(CC(C3)C1)C2 (centres undefined)", "OBSERVATION_TYPE": "IC50", "RESULT": "Not Active"}

====

test: DRUGMATRIX: Atrial Natriuretic Factor (ANF) radioligand binding (ligand: [125I] ANF (rat)); assay type: cell membranes, Cavia porcellus, Dunkin-Hartley, Adrenal gland, Membrane; conditions: Not Active = under 50% inhibition at 10 µM

{"COMPOUND": "O=C(c1ccccc1)c1ccc2n1CCC2C(=O)O (stereo not drawn)", "IC50": "Not Active"}
{"COMPOUND": "C[C@]12CCC(=O)C[C@@H]1CC[C@@H]1[C@@H]2CC[C@]2(C)[C@@H](O)CC[C@@H]12", "IC50": "Not Active"}
{"COMPOUND": "Oc1ccc(/C=C/c2cc(O)cc(O)c2)cc1", "IC50": "Not Active"}

====

target: Adenosine receptor A3 (Homo sapiens, UniProt P0DMS8); format: cell membranes, CHO-K1, Membrane; conditions: read-out: IC50; note: in other assays of this panel Not Active means under 50% inhibition at 10 µM;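 note: radioligand binding assay with AB-MECA serving as the labeled ligand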
Sequence (P0DMS8 whole entry): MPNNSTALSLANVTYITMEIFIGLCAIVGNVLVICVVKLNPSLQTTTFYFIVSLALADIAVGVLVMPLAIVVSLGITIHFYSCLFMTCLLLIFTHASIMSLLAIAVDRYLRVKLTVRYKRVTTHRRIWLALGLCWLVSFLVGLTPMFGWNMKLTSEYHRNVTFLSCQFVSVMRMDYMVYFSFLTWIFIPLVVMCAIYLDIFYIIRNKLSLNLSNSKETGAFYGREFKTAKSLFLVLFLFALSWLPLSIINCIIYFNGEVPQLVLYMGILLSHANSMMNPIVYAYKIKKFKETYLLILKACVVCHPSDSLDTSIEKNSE
Below, each entry is listed with its recorded pIC50.
pIC50 is defined as minus the log10 of a concentration measured in mol/L.

{"COMPOUND": "CC1(COc2ccc(CC3SC(=O)NC3=O)cc2)CCCCC1 (centres undefined)", "pIC50": 5.52}
{"COMPOUND": "c1ccc2c(c1)Nc1ccccc1S2", "pIC50": 4.59}

In: Field request: pIC50 | item: c1ccc2sc(SSc3nc4ccccc4s3)nc2c1 [BENZOTHIAZYL DISULFIDE]
Out: 6.46

In: Next: "Clc1cc(Cl)c(OCC#CI)cc1Cl"
Out: 6.65

Reference for the values: ChEMBL document CHEMBL1909046
